ASSAY ENDPOINT: melting point

melting point for O=Cc1cn(-c2ccccc2)nc1-c1ccc(Br)cc1 is 141 to 143 °C

melting point for O=C(O)C1CC(O)CN1C(=O)c1ccc(F)cc1 (centres undefined) is 206 to 208 °C

melting point for Cn1ccc2c1C(=O)NCC2 is 71 to 73 °C

melting point for CNc1ccc(Cl)cc1[N+](=O)[O-] is 106 to 108 °C

melting point for N#Cc1ccc(N2CCNCC2)c(F)c1 is 84 to 86 °C

Let's switch to this compound now.
melting point for O=C(NCCCc1ccccc1)c1ccccc1O is 77 to 79 °C

---

Listing of entries alongside the reported melting point.

Sample records with melting point:
melting point for COc1ccc(/C=C/C(=O)O)cc1S(N)(=O)=O is 257 to 259 °C

melting point for CC(=CC(=O)O)c1ccccc1C is 81 to 83 °C

melting point for CCOC(=O)C1CC1c1ccc(OC)cc1 (stereo not drawn) is 78 to 80 °C

melting point for O=c1c2cnn(-c3ccccc3)c2nnn1CCl is 179 to 181 °C

melting point for O=C(O)c1cn(CCOc2ccccc2Cl)c2ccccc12 is 186 to 188 °C

melting point for Cc1nc(-c2ccc(N)cc2)oc1C is 150 to 152 °C

Next:
melting point for CC1CCC(NC(=O)CN2CCNCC2)CC1 (stereo not drawn) is 120 to 122 °C

melting point for NS(=O)(=O)c1ccc(Br)c([N+](=O)[O-])c1 is 185 to 187 °C

melting point for Nc1cccc(-c2noc(C3CC3)n2)c1 is 69 to 71 °C

melting point for Cc1nn(CCO)c2ncc(Br)cc12 is 110 to 112 °C

melting point for CC(C)(C)c1cc(N)n(-c2ccc(F)cc2)n1 is 98 to 100 °C

melting point for COc1nc(Cl)c(C=O)n1C is 105 to 107 °C

melting point for O=C1CCc2cc(C(=O)c3c(F)cccc3F)ccc2N1 is 248 to 250 °C

---

Listing of entries alongside the reported melting point.

Sample records with melting point:
melting point for CC(C)Cn1c(S)nc2scc(-c3cccs3)c2c1=O is 236 to 238 °C

melting point for O=C(c1cccc(S(=O)(=O)Cl)c1)N1CCCC1 is 65 to 67 °C

melting point for O=C(O)c1ccccc1OC1CCCCC1 is 86 to 88 °C

melting point for CCOC(=O)c1nc2cc(Cl)ncn2n1 is 194 to 196 °C

melting point for Cc1ccccc1-c1nn[nH]n1 is 153 to 155 °C

Next:
melting point for Cn1cc(C2NC(=O)CCC2N)cn1 (centres undefined) is 164 to 166 °C

melting point for Nc1c(F)ccc(Br)c1C(=O)O is 128 to 130 °C

melting point for CC(=O)N1CCc2ccccc2C1CC(=O)O (centres undefined) is 163 to 167 °C

melting point for CON(C)S(=O)(=O)c1ccc(Cl)c(C(=O)O)c1 is 184 to 186 °C

melting point for Cc1ccc(N)c(C)c1O is 102 to 104 °C

---

Listing of entries alongside the reported melting point.

Sample records with melting point:
melting point for O=C(O)c1ccc(CNC(=O)c2cccs2)cc1 is 209 to 211 °C

melting point for O=C(O)Cn1nc(-c2cccs2)oc1=O is 176 to 178 °C

melting point for CC(=O)c1ccc(S(=O)(=O)CC(F)(F)F)cc1 is 102 to 104 °C

melting point for CCNC(=O)CN1CCNCC1 is 83 to 85 °C

melting point for COC(=O)c1sc(N)c(C(=O)OC)c1CBr is 163 to 165 °C

Next:
melting point for Cc1nn(Cc2ccc(Cl)cc2)c2sc(C(=O)O)cc12 is 245 to 247 °C

melting point for CC1CCCC(NC(=O)CCl)C1C (configuration not stated) is 125 to 127 °C

melting point for NCc1c[nH]nn1 is 211 to 213 °C

melting point for COCCOc1nc(C(=O)O)cc2ccccc12 is 145 to 147 °C

melting point for Cc1ccc(S(=O)(=O)Cl)c(Br)c1 is 70 to 72 °C

melting point for Cn1cnc([N+](=O)[O-])c1Oc1ccc(Br)cc1 is 129 to 131 °C
